List of pKd values.
- subject_of_test: T1, EsCas13d, nuclease-dead (Eubacterium siraeum, UniProt B0MS50, R295A;H300A;R849A;H854A)
- T1 sequence: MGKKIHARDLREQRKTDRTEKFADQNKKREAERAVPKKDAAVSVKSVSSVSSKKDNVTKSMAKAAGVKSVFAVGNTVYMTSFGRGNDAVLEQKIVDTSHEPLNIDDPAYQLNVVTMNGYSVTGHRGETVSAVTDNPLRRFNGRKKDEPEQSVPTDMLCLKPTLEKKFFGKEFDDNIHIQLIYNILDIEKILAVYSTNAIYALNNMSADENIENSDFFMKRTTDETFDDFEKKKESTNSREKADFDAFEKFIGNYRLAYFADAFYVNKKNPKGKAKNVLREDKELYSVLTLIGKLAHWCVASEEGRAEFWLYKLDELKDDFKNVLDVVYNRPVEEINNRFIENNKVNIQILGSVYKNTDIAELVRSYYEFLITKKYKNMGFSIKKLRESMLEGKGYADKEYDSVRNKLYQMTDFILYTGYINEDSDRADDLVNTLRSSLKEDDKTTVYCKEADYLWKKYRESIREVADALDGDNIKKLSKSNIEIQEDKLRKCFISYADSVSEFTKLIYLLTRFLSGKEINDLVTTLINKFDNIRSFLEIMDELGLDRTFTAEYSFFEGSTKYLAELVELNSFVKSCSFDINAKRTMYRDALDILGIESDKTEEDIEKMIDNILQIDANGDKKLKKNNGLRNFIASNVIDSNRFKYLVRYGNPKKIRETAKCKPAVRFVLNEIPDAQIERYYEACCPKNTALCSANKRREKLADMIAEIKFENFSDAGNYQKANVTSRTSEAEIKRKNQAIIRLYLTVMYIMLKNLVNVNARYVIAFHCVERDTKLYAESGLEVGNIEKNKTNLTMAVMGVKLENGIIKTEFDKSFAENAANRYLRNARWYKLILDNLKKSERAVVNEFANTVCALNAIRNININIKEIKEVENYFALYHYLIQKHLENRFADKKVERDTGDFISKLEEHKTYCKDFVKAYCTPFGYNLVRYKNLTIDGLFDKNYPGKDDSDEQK
- experimental_details: crRNA (strand 1, pre-loaded); Mg2+; 40 mM Tris-HCl pH 7.5, 150 mM NaCl, 6 mM MgCl2, 1 mM DTT, 0.1% Tween-20, 0.2 mg/ml BSA; 25 C; 10 min per concentration, then washed
- test_context: tags: His6-TwinStrep-SUMO cleaved; N-terminal SNAP kept (SNAP-Surface 488); label: 3' end held by stalled T7 RNA polymerase
pKd: −log10 of the molar value.

{"binder": "target 1 MT 5'PFS UAG 3'PFS CUA (mixed) RNA 1: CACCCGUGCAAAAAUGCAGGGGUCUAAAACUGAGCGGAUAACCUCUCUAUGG RNA 2: GGGAAUGGAUCCACAUCUACGAAUUCUAGCCAUAGAGAGGUUAUCCGCUCACUAAGAUCGGAAGAGCACACGU", "pKd": 7.65}
{"binder": "target 2 MT 5'PFS GGU 3'PFS AGC (mixed) RNA 1: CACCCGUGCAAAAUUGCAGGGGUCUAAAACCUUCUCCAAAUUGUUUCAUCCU RNA 2: GGGAAUGGAUCCACAUCUACGAAUUCGGUAGGAUGAAACAAUUUGGAGAAGAGCAGAUCGGAAGAGCACACGU", "pKd": 7.86}
